method: Biodistribution in AR42J tumor-bearing nude mice
condition-summary: mouse, stomach, iv, 25 pmol/mouse, Biodistribution Stomach, Control, 60 min p.i., tracer only, n = 5
observed-property: tissue uptake at 1 h (%ID/g)
Answers are plain numbers, in %ID/g.

What does the record list as tissue uptake at 1 h for C[C@@H](O)[C@H](NC(=O)[C@@H]1CSSC[C@H](NC(=O)[C@@H](Cc2ccccc2)NC(=O)CN2CCN(CC(=O)O)CCN(CC(=O)O)CCN(CC(=O)O)CC2)C(=O)N[C@@H](Cc2ccc(O)c(I)c2)C(=O)N[C@H](Cc2c[nH]c3ccccc23)C(=O)N[C@@H](CCCCN)C(=O)N[C@@H]([C@@H](C)O)C(=O)N1)C(=O)O [[^68Ga]HA-DOTATATE, [^68Ga]DOTA-3-iodo-Tyr^3-octreotate, metal not drawn] ? 21.7

These entries and their values trace back to paper PMC4402678.
